System: MCF7
assayProcedure: Cytotoxic activity against human MCF7 cells assessed as cell growth inhibition after 48 hrs by MTT assay
Type: functional, cell-based
conditionNotes: MCF7, 48 h
pIC50: −log10 of the molar value.
pIC50: recorded values

molecule	comparisonSign	pIC50
C=C(C)[C@@H]1CC[C@]2(C(=O)O)CC[C@]3(C)[C@H](CC[C@@H]4[C@@]5(C)CC[C@H](OC(=O)Cn6cc(-c7ccc([N+](=O)[O-])cc7)nn6)C(C)(C)[C@@H]5CC[C@]43C)[C@@H]12	=	4.34
C=C(C)[C@@H]1CC[C@]2(C(=O)O)CC[C@]3(C)[C@H](CC[C@@H]4[C@@]5(C)CC[C@H](OC(=O)Cn6cc(CO[C@@H]7[C@H]8OC(C)(C)O[C@H]8O[C@@H]7[C@H]7COC(C)(C)O7)nn6)C(C)(C)[C@@H]5CC[C@]43C)[C@@H]12	<	4.30

###

Tested on: HT-29
assayProcedure: Cytotoxicity against human HT-29 cells assessed as cell viability after 48 hrs by MTT assay in presence of NAC
Assay type: functional, cell-based
conditionNotes: HT-29, 48 h
measurementType: IC50 (µM)

molecule	measurementType	testValue
C=C(C)[C@@H]1CC[C@]2(C(=O)O)CC[C@]3(C)[C@H](CC[C@@H]4[C@@]5(C)CC[C@H](OC(=O)Cn6cc(CO)nn6)C(C)(C)[C@@H]5CC[C@]43C)[C@@H]12	IC50	30.4
